Test system: E. coli BW25113
test: Minimum Inhibitory Concentration (MIC) determination, E. coli BW25113
Type: cell-based
Parameters: unit not given here
condition-details: LB broth, 5×10^5 CFU/ml, 37° C., 18 hours, scored by eye
Bridge positions count the residues as written; N and C are the ends. Square brackets hold non-standard residues; d marks the D form. Peptide text beside a SMILES is read from it. 1Nal = N[C@@H](Cc1cccc2ccccc12)C(=O)O; His(π-Me) = Cn1cncc1C[C@H](N)C(=O)O; NMeY = CN[C@@H](Cc1ccc(O)cc1)C(=O)O; Abu = CC[C@H](N)C(=O)O
assay-endpoint: MIC E. coli BW25113 WUXI::MIC
# print the numeric value only

molecule	system-name	measured-value
CC[C@@H]1NC(=O)[C@H](CO)NC(=O)CSC[C@@H](C(=O)NCC(N)=O)NC(=O)[C@H](Cc2cncn2C)NC(=O)[C@H](CCCNC(=N)N)NC(=O)[C@H](Cc2c[nH]cn2)NC(=O)[C@H](Cc2ccc(O)cc2)N(C)C(=O)[C@H](CCCNC(=N)N)NC(=O)[C@H](CO)NC(=O)CNC(=O)[C@H](Cc2c[nH]cn2)NC(=O)[C@H](Cc2cccc3ccccc23)NC1=O [Compound 21] ({CH2CO}-S[Abu][1Nal]HGSR[NMeY]HR[His(π-Me)]CG-NH2; thioether N-12)	E. coli BW25113	50

Now look at this entry.
Entry CC[C@H](C)[C@@H]1NC(=O)[C@H](Cc2ccccc2)NC(=O)CSC[C@@H](C(=O)NCC(N)=O)NC(=O)[C@H](Cc2cncn2C)NC(=O)[C@H](CCCNC(=N)N)NC(=O)[C@H](Cc2cnc[nH]2)NC(=O)[C@H](Cc2ccccc2)N(C)C(=O)[C@H](CCCNC(=N)N)NC(=O)[C@H](CO)NC(=O)CNC(=O)[C@H](Cc2cnc[nH]2)NC(=O)[C@H](Cc2c[nH]c3ccccc23)NC1=O (racemic) needs its MIC E. coli BW25113 WUXI::MIC filled in; supply it.
100

* * *

System: K. pneumoniae ATCC43816
test: Minimum Inhibitory Concentration (MIC) determination, K. pneumoniae ATCC43816
Format: cell-based
Parameters: unit not given here
condition-details: LB broth, 5×10^5 CFU/ml, 37° C., 18 hours, scored by eye
Bridge positions count the residues as written; N and C are the ends. Square brackets hold non-standard residues; d marks the D form. Peptide text beside a SMILES is read from it. NMePhe(4-Cl) = CN[C@@H](Cc1ccc(Cl)cc1)C(=O)O; 1Nal = N[C@@H](Cc1cccc2ccccc12)C(=O)O; His(π-Me) = Cn1cncc1C[C@H](N)C(=O)O; NMeY = CN[C@@H](Cc1ccc(O)cc1)C(=O)O; Abu = CC[C@H](N)C(=O)O
Strictly below 10 in MIC K. pneumoniae ATCC43816 Wuxi::MIC: Condition met. Otherwise: Condition not met.

molecule	label-value
CC[C@@H]1NC(=O)[C@H](Cc2ccccc2)NC(=O)CSC[C@@H](C(=O)NCC(N)=O)NC(=O)[C@H](Cc2cncn2C)NC(=O)[C@H](CCCNC(=N)N)NC(=O)[C@H](Cc2c[nH]cn2)NC(=O)[C@H](Cc2ccc(O)cc2)N(C)C(=O)[C@H](CCCNC(=N)N)NC(=O)[C@H](CO)NC(=O)[C@@H](CO)NC(=O)[C@H](Cc2c[nH]cn2)NC(=O)[C@H](Cc2cccc3ccccc23)NC1=O [Compound 27] ({CH2CO}-F[Abu][1Nal]H[dS]SR[NMeY]HR[His(π-Me)]CG-NH2; thioether N-12)	Condition not met
CC[C@@H]1NC(=O)[C@H](Cc2ccccc2)NC(=O)CSC[C@@H](C(=O)NCC(N)=O)NC(=O)[C@H](Cc2cncn2C)NC(=O)[C@H](CCCNC(=N)N)NC(=O)[C@H](Cc2cnc[nH]2)NC(=O)[C@H](Cc2ccc(O)cc2)N(C)C(=O)[C@H](CCCNC(=N)N)NC(=O)[C@H](CO)NC(=O)CNC(=O)[C@H](Cc2cnc[nH]2)NC(=O)[C@H](Cc2cccc3ccccc23)NC1=O (racemic) [Compound 16]	Condition met
CC[C@@H]1NC(=O)[C@H](Cc2ccc(O)cc2)NC(=O)CSC[C@@H](C(=O)NCC(N)=O)NC(=O)[C@H](Cc2cncn2C)NC(=O)[C@H](CCCNC(=N)N)NC(=O)[C@H](Cc2c[nH]cn2)NC(=O)[C@H](Cc2ccc(O)cc2)N(C)C(=O)[C@H](CCCNC(=N)N)NC(=O)[C@H](CO)NC(=O)CNC(=O)[C@H](Cc2c[nH]cn2)NC(=O)[C@H](Cc2cccc3ccccc23)NC1=O [Compound 19] ({CH2CO}-Y[Abu][1Nal]HGSR[NMeY]HR[His(π-Me)]CG-NH2; thioether N-12)	Condition met

Report whether reported MIC K. pneumoniae ATCC43816 Wuxi::MIC is lower than 10 (strictly) for CC[C@@H]1NC(=O)[C@H](Cc2ccccc2)NC(=O)CSC[C@@H](C(=O)NCC(N)=O)NC(=O)[C@H](Cc2cncn2C)NC(=O)[C@H](CCCNC(=N)N)NC(=O)[C@H](Cc2cnc[nH]2)NC(=O)[C@H](Cc2ccc(O)cc2)N(C)C(=O)[C@H](CCCNC(=N)N)NC(=O)[C@H](CO)NC(=O)CNC(=O)[C@H](C)NC(=O)[C@H](Cc2cccc3ccccc23)NC1=O (stereo in doubt) [Compound 35]
Condition not met

Report whether reported MIC K. pneumoniae ATCC43816 Wuxi::MIC is lower than 10 (strictly) for CC[C@@H]1NC(=O)[C@H](Cc2ccccc2)NC(=O)CSC[C@@H](C(=O)NCC(N)=O)NC(=O)[C@H](Cc2cncn2C)NC(=O)[C@H](CCCNC(=N)N)NC(=O)[C@H](Cc2c[nH]cn2)NC(=O)[C@H](Cc2ccc(Cl)cc2)N(C)C(=O)[C@H](CCCNC(=N)N)NC(=O)[C@H](CO)NC(=O)CNC(=O)[C@H](Cc2c[nH]cn2)NC(=O)[C@H](Cc2cccc3ccccc23)NC1=O [Compound 33] ({CH2CO}-F[Abu][1Nal]HGSR[NMePhe(4-Cl)]HR[His(π-Me)]CG-NH2; thioether N-12)
Condition not met
